Ref: ChEMBL document CHEMBL3739303

- assay text: Cytotoxicity against human BEAS2B cells assessed as cell viability after 72 hrs by MTS assay
- Assay type: cell-based
- experimental setup: beas-2b

- smiles text: "CN(C(=O)[C@@H]1CCCN1C(=O)[C@@H](NC(=O)/C=C/c1ccc(C(F)(F)P(=O)(OCOC(=O)C(C)(C)C)OCOC(=O)C(C)(C)C)cc1)C(C)(C)C)c1ccccc1"
  Activity: "Non-toxic"
- smiles text: "C/C(=C\\C(=O)N[C@H](C(=O)N1CCC[C@H]1C(=O)N(C)C1CCCCC1)C(C)(C)C)c1ccc(C(F)(F)P(=O)(OCOC(=O)C(C)(C)C)OCOC(=O)C(C)(C)C)cc1"
  Activity: "Non-toxic"
- smiles text: "C/C(=C\\C(=O)N[C@H](C(=O)N1CCC[C@H]1C(=O)N(C)c1ccccc1)C(C)(C)C)c1ccc(C(F)(F)P(=O)(OCOC(=O)C(C)(C)C)OCOC(=O)C(C)(C)C)cc1"
  Activity: "Non-toxic"
- smiles text: "CC(C)(C)C(=O)OCOP(=O)(OCOC(=O)C(C)(C)C)C(F)(F)c1ccc(/C=C/C(=O)N[C@H](C(=O)N2CCC[C@H]2C(=O)Nc2ccccc2)C(C)(C)C)cc1"
  Activity: "Toxic"
